- STUDY_SYSTEM: Nuclear receptor subfamily 1 group I member 2 (Rattus norvegicus)
- TEST_NAME: Rat pregnane X receptor (rPXR) activation by small molecules, qHTS assay (AID 1346983); also: % is scaled to controls: 0 for no effect and ±100 for the full control effect; nearly all actives have a fitted effect of over 20% in size
- ASSAY_SETUP: rPXR luciferase reporter cells, One-Glo luminescence, 24 h; active compounds read high
- Source text: National Center for Advancing Translational Sciences [NCATS] NIH Chemical Genomics Center [NCGC] U.S. Environmental Protection Agency [EPA] National Institutes of Environmental Health Sciences [NIEHS] National Toxicology Program [NTP] Assay overview: The Pregnane X receptor (PXR), a ligand activated nuclear receptor plays a critical role in the regulation of genes involved in drug metabolism and transporters. […]
Inconclusive results are not listed.
QUANTITY_MEASURED: max activation (%)

MOLECULE: COc1cnc(NS(=O)(=O)c2ccc(N)cc2)nc1
UNIT_NAME: %
MEASURED_VALUE: -1.37
--
MOLECULE: CC[C@@]1(c2ccccc2)NC(=O)N(C)C1=O
UNIT_NAME: %
MEASURED_VALUE: -0.191
--
MOLECULE: N[C@H]1C(O)O[C@H](CO)[C@@H](O)[C@@H]1O (some centres not stated)
UNIT_NAME: %
MEASURED_VALUE: 3.63
--
MOLECULE: CCOC(=O)[C@H](CCc1ccccc1)N[C@H]1CS[C@H](c2cccs2)CN(CC(=O)O)C1=O
UNIT_NAME: %
MEASURED_VALUE: -2.69
--
MOLECULE: C[C@@H]1NC(=O)[C@@H](N)CNC(=O)[C@H](C2CCNC(N)=N2)NC(=O)/C(=C/NC(N)=O)NC(=O)[C@H](CNC(=O)C[C@@H](N)CCCN)NC1=O (some centres not stated)
UNIT_NAME: %
MEASURED_VALUE: -6.29
--
MOLECULE: C[C@H]1COc2c(C3(N)CC3)c(F)cc3c(=O)c(C(=O)O)cn1c23
UNIT_NAME: %
MEASURED_VALUE: -2.87
--
MOLECULE: CCCCC(CC)CCC(CC(C)C)OS(=O)(=O)O (configuration not stated)
UNIT_NAME: %
MEASURED_VALUE: -2.27
--
MOLECULE: CN(C)CCc1c[nH]c2ccc(CS(=O)(=O)N3CCCC3)cc12
UNIT_NAME: %
MEASURED_VALUE: -1.76
--
MOLECULE: CC(C)(C)C(=O)NCCCC(=O)O
UNIT_NAME: %
MEASURED_VALUE: -1.4
--
MOLECULE: O=C(CCBr)N1CCN(C(=O)CCBr)CC1
UNIT_NAME: %
MEASURED_VALUE: -2.92
--
MOLECULE: NC(=O)CC[C@@H](N)C(=O)O
UNIT_NAME: %
MEASURED_VALUE: 0.0386
--
MOLECULE: NS(=O)(=O)c1cc2c(cc1C(F)(F)F)NCNS2(=O)=O
UNIT_NAME: %
MEASURED_VALUE: -2.82
--
MOLECULE: CCN1CCN(C(=O)N[C@@H](C(=O)N[C@@H]2C(=O)N3C(C(=O)O)=C(CSc4nnnn4C)CS[C@H]23)c2ccc(O)cc2)C(=O)C1=O
UNIT_NAME: %
MEASURED_VALUE: -3.62
--
MOLECULE: COc1cc2nc(N3CCN(C(=O)C4CCCO4)CC3)nc(N)c2cc1OC (configuration not stated)
UNIT_NAME: %
MEASURED_VALUE: 0.468
--
MOLECULE: O=C(O)P(=O)(O)O
UNIT_NAME: %
MEASURED_VALUE: -4.52
--
MOLECULE: CC(C)(Sc1cc(C(C)(C)C)c(O)c(C(C)(C)C)c1)Sc1cc(C(C)(C)C)c(O)c(C(C)(C)C)c1
UNIT_NAME: %
MEASURED_VALUE: -1.55
--
MOLECULE: CC(O)CCCCn1c(=O)c2c(ncn2C)n(C)c1=O (configuration not stated)
UNIT_NAME: %
MEASURED_VALUE: -1.02

###

- TEST_NAME: qHTS assay to identify small molecule agonists of the retinoic acid receptor (RAR) signaling pathway (AID 1159553); as to activation: % is scaled to controls: 0 for no effect and ±100 for the full control effect
- ASSAY_SETUP: C3RL4 RARE luciferase reporter, agonist, 6 h; series mostly up to 73.3 µM
Inconclusive results are not listed. Active and inactive are the calls of the source. The call rests on the fitted dose curve; in most records, active means well fitted activation curve with a large enough effect in the repeat runs; inconclusive means weak or mixed curves, or effect the other way; inactive means no such curve, though single readings can be large or run the other way.

COMPOUND_STRUCTURE: C[C@@H](CN1CC(=O)NC(=O)C1)N1CC(=O)NC(=O)C1
outcome: inactive
--
COMPOUND_STRUCTURE: CCCCN(CCCC)CCCCCCN(CCCC)CCCC
outcome: inactive
--
COMPOUND_STRUCTURE: CC(=O)c1ccc(O)c(C(N)=O)c1
outcome: inactive
--
COMPOUND_STRUCTURE: Cc1ccc(Br)cc1
outcome: inactive
--
COMPOUND_STRUCTURE: CN(C)CCC[C@@]1(c2ccc(F)cc2)OCc2cc(C#N)ccc21
outcome: inactive
--
COMPOUND_STRUCTURE: COc1cc(NS(=O)(=O)c2ccc(N)cc2)ncn1
outcome: inactive

###

- TEST_NAME: qHTS assay for identifying genotoxic compounds that show differential cytotoxicity against isogenic chicken DT40 cell lines with known DNA damage response pathways - wild type cell line (AID 743012); also: nearly all actives have a fitted effect of over 60% in size
- ASSAY_SETUP: DT40 wild type chicken cells viability, CellTiter-Glo, 40 h; series mostly up to 68.4 µM
Results filed as inconclusive are left out. The source made the active and inactive calls. The call rests on the fitted dose curve; in most records, active means well fitted cell-killing curve with a large enough effect in the repeat runs; inconclusive means weak or mixed curves, or effect the other way; inactive means no such curve, though single readings can be large or run the other way.
Outcomes: active, inactive

MOLECULE: Cc1ccccc1OCC(=O)O
ASSIGNED_CLASS: inactive
--
MOLECULE: CCCC(C)C(O)CC (stereo not drawn)
ASSIGNED_CLASS: inactive
--
MOLECULE: O=C1CC2(CCCC2)CC(=O)N1CCNCC1COc2ccccc2O1 (stereo not drawn)
ASSIGNED_CLASS: active

###

- TEST_NAME: qHTS assay to identify small molecule agonists of the retinoic acid receptor (RAR) signaling pathway (AID 1159553); as to activation: % is scaled to controls: 0 for no effect and ±100 for the full control effect
- ASSAY_SETUP: C3RL4 RARE luciferase reporter, agonist, 6 h; series mostly up to 73.3 µM
Results filed as inconclusive are left out. Active and inactive are the calls of the source. The call rests on the fitted dose curve; in most records, active means well fitted activation curve with a large enough effect in the repeat runs; inconclusive means weak or mixed curves, or effect the other way; inactive means no such curve, though single readings can be large or run the other way.
Classes used: class 1 = active, class 0 = inactive

COMPOUND: C=CC(C)(CCC=C(C)C)OC(=O)C(C)C (configuration not stated)
ASSIGNED_CLASS: class 0

COMPOUND: CC(=O)O[C@@H]1CC2C3CCc4cc(OC(=O)c5ccccc5)ccc4C3CCC2(C)[C@H]1OC(C)=O (some centres not stated)
ASSIGNED_CLASS: class 0

COMPOUND: CC(=O)OC/C=C(/C)CCC=C(C)C
ASSIGNED_CLASS: class 0

COMPOUND: COC(=O)c1c(C)cc(O)c(C)c1O
ASSIGNED_CLASS: class 0

COMPOUND: COc1ccc2cc(CCC(C)=O)ccc2c1
ASSIGNED_CLASS: class 1

COMPOUND: CCOCCOCCOC(C)=O
ASSIGNED_CLASS: class 0

COMPOUND: CC(C)OCCO
ASSIGNED_CLASS: class 0

COMPOUND: CCN1CCN(C(=O)N[C@@H](C(=O)N[C@@H]2C(=O)N3[C@@H]2SC(C)(C)[C@H]3C(=O)O)c2ccccc2)C(=O)C1=O
ASSIGNED_CLASS: class 0

COMPOUND: C=CCCCCCCCCCCCCCC
ASSIGNED_CLASS: class 0

COMPOUND: CC(=O)SC[C@@H](C)C(=O)N1CCC[C@H]1C(=O)N[C@@H](Cc1ccccc1)C(=O)O
ASSIGNED_CLASS: class 0

COMPOUND: NS(=O)(=O)c1cc2c(cc1C(F)(F)F)NCNS2(=O)=O
ASSIGNED_CLASS: class 0

COMPOUND: O=S(=O)(O)c1cc(I)c(O)c2ncccc12
ASSIGNED_CLASS: class 0

COMPOUND: O=c1c(O)c(O)c1=O
ASSIGNED_CLASS: class 0

COMPOUND: NCC1CCC(C(=O)Oc2ccc(CCC(=O)O)cc2)CC1 (configuration not stated)
ASSIGNED_CLASS: class 0

COMPOUND: CC(C)=CCC/C(C)=C\C#N
ASSIGNED_CLASS: class 0

COMPOUND: CC12CCCC=C1C(=O)OC2=O (configuration not stated)
ASSIGNED_CLASS: class 0

COMPOUND: CCOc1ccccc1OCCN[C@H](C)Cc1ccc(OC)c(S(N)(=O)=O)c1
ASSIGNED_CLASS: class 0
